# assay.system: T1R1/T1R3 receptor (Felis catus, UniProt E3UMS2)
# experimental.protocol: Agonist screening of transmembrane compounds on T1R1/T1R3 in HEK293 cells (Example 8)
# Type: cell-based, cat
# experimental.parameters: transmembrane compound tested at 0.01, 0.1 and 1 mM; HEK293 cells expressing T1R1/T1R3; calcium readout
readout.label: T1R1/T1R3 agonist

Worked cases, T1R1/T1R3 agonist given:
{"molecule": "N[C@@H](Cc1ccc(O)cc1)C(=O)OCc1ccccc1 [Formula 21, L-Tyrosine benzyl ester]", "result": "No"}
{"molecule": "O=C(CN1C(=O)C(=O)N(CCc2cccs2)C1=O)c1ccc2c(c1)OCO2 [Formula 7]", "result": "No"}
{"molecule": "O=C(CN1C(=O)C(=O)N(CCc2cccs2)C1=O)c1ccccc1 [Formula 6]", "result": "No"}
{"molecule": "CCCC(CCC)NC(=O)c1ccc2c(c1)OCO2 [Formula 14]", "result": "Yes"}

Okay, next one:
Tell me measured T1R1/T1R3 agonist for O=C(CN1C(=O)C(=O)N(Cc2ccccc2)C1=O)c1ccc2c(c1)OCCCO2 [Formula 8] please.
No

* * *

# assay.system: T1R1/T1R3 receptor (Felis catus, UniProt E3UMS2)
# experimental.protocol: Activation of T1R1/T1R3 receptor by transmembrane compounds alone or with alanine, IMP, GMP, phenylalanine; HEK293 cells, calcium fluorescence (Example 5)
# Type: cell-based, cat
# experimental.parameters: +IMP (0.2 mM); threshold concentration
# Excerpt: Methods: HEK293 cells that stably express T1R3 and inducibly express T1R1 were exposed to transmembrane compounds alone or in combination with one or more amino acids and/or one or more nucleotides to activate the umami receptor. Activation of the T1R1/T1R3 receptor was detected by a change in intracellular calcium levels using a calcium sensitive fluorescent dye. Cells that express T1R3 but not T1R1 were used as a control. A FLIPR® Tetra or a FlexStation® 3 was used for data capture. […]
The following ranges of Thres +IMP (0.2 mM) define the classes used here: low: < 0.1 mM; intermediate: ≥ 0.1 mM and < 0.5 mM; high: ≥ 0.5 mM

Solved cases (5 shown):
{"compound": "CCC(CC)NC(=O)/C=C/c1ccc(OC)cc1", "class.assignment": "low"}
{"compound": "CCC(CC)NC(=O)c1ccc(C)c(C)c1 [3,4-dimethyl-N-(pentan-3-yl)benzamide]", "class.assignment": "high"}
{"compound": "COc1cc(C(=O)NC(C(N)=O)c2ccccc2)cc(Cl)c1OC (stereo not drawn)", "class.assignment": "intermediate"}
{"compound": "CCC(CC)NC(=O)c1ccc2c(c1)OCCO2", "class.assignment": "low"}
{"compound": "CCOC(=O)C(NC(=O)c1ccc2c(c1)OCO2)C(C)C (stereo not drawn)", "class.assignment": "high"}

Consider "CCC(CC)NC(=O)c1ccc(Br)o1" . To which Thres +IMP (0.2 mM) class does it belong?
intermediate

Textbook exercise: identify the category of the compound given here, "O=C(CN1C(=O)C(=O)N(Cc2ccccc2)C1=O)c1ccccc1" , according to its measured value.
low

Band of O=C(Nc1ccccc1Br)N[C@@H]1c2ccccc2C[C@@H]1O (stereo in doubt) ?
high

Using the reported Thres +IMP (0.2 mM), which band applies to CCCC(C)NC(=O)/C=C/c1ccc(OC)c(OC)c1 (stereo not drawn) ?
high

* * *

Below, each of the molecules is paired with its reported Max resp ΔF/F +IMP (0.2 mM) value.
# assay.system: T1R1/T1R3 receptor (Felis catus, UniProt E3UMS2)
# experimental.protocol: Activation of T1R1/T1R3 receptor by transmembrane compounds and nucleotide derivatives, conducted as in Examples 1, 2 and 5 (Example 7)
# Assay type: cell-based, cat
# experimental.parameters: +IMP (0.2 mM)

Recorded results for 10 molecules are shown here.
{"molecule": "Nc1ccccc1C(=O)NCCc1ccccc1 [2-amino-N-phenethylbenzamide]", "assay.system": "T1R1/T1R3 receptor (Felis catus, UniProt E3UMS2)", "readout.label": "Max resp ΔF/F +IMP (0.2 mM)", "result": "1.5125 ΔF/F"}
{"molecule": "C[C@H](N)C(=O)O [L-Alanine, reference compound]", "assay.system": "T1R1/T1R3 receptor (Felis catus, UniProt E3UMS2)", "readout.label": "Max resp ΔF/F +IMP (0.2 mM)", "result": "0.7775 ΔF/F"}
{"molecule": "CCCCc1nn(CC(=O)N2CCCC2)c(=O)n1Cc1ccccc1", "assay.system": "T1R1/T1R3 receptor (Felis catus, UniProt E3UMS2)", "readout.label": "Max resp ΔF/F +IMP (0.2 mM)", "result": "1.5025 ΔF/F"}
{"molecule": "O=C(NCCc1ccccc1)c1cccnc1 [N-phenethylnicotinamide]", "assay.system": "T1R1/T1R3 receptor (Felis catus, UniProt E3UMS2)", "readout.label": "Max resp ΔF/F +IMP (0.2 mM)", "result": "1.1625 ΔF/F"}
{"molecule": "O=P(O)(O)OP(=O)(O)OP(=O)(O)OC[C@H]1O[C@@H](n2cnc3c(Cl)ncnc32)[C@H](O)[C@@H]1O", "assay.system": "T1R1/T1R3 receptor (Felis catus, UniProt E3UMS2)", "readout.label": "Max resp ΔF/F +IMP (0.2 mM)", "result": "0.2350 ΔF/F"}
{"molecule": "N[C@@H](Cc1c[nH]c2ccccc12)C(=O)O [L-Tryptophan, reference compound]", "assay.system": "T1R1/T1R3 receptor (Felis catus, UniProt E3UMS2)", "readout.label": "Max resp ΔF/F +IMP (0.2 mM)", "result": "0.6750 ΔF/F"}
{"molecule": "Nc1nc2c(ncn2[C@@H]2O[C@H](COP(=O)(O)OP(=O)(O)O)[C@@H](O)[C@H]2O)c(=S)[nH]1 [6-Thioguanosine-5′-O-diphosphate]", "assay.system": "T1R1/T1R3 receptor (Felis catus, UniProt E3UMS2)", "readout.label": "Max resp ΔF/F +IMP (0.2 mM)", "result": "0.0720 ΔF/F"}
{"molecule": "O=C1CC(=O)N(Cc2ccccc2)C(=O)N1Cc1ccccc1", "assay.system": "T1R1/T1R3 receptor (Felis catus, UniProt E3UMS2)", "readout.label": "Max resp ΔF/F +IMP (0.2 mM)", "result": "0.2775 ΔF/F"}
{"molecule": "O=C(NCCc1ccccc1)c1ccccc1 [N-phenethylbenzamide]", "assay.system": "T1R1/T1R3 receptor (Felis catus, UniProt E3UMS2)", "readout.label": "Max resp ΔF/F +IMP (0.2 mM)", "result": "0.9800 ΔF/F"}
{"molecule": "CC(C)CC(NC(=O)c1ccccc1)C(N)=O (racemic)", "assay.system": "T1R1/T1R3 receptor (Felis catus, UniProt E3UMS2)", "readout.label": "Max resp ΔF/F +IMP (0.2 mM)", "result": "1.5900 ΔF/F"}

Please report the measured Max resp ΔF/F +IMP (0.2 mM) for N[C@@H](Cc1ccccc1)C(=O)O [L-Phenylalanine, reference compound]
0.5900 ΔF/F

Return Max resp ΔF/F +IMP (0.2 mM) (reported value) for this molecule: N[C@@H](CO)C(=O)O [L-Serine, reference compound]
0.7775 ΔF/F
